Provenance of the data: the supplement of paper PMC10567573

B1: TOR1AIP2 (parent)
chain: AGQEGEDTLRRRLLAPEAGSHPQQ

Variants of: B1
procedure.summary: protein stability index of a GFP-peptide fusion (GPS, HEK-293T) (PSI 1-6); higher = more stable;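 also: lentivirally expressed fusions sorted by FACS into six bins by GFP to DsRed ratio, PSI derived from sequencing read proportions per bin multiplied by bin number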
assay.conditions: c terminus: a fixed tail appended
Below, each entry is listed with its recorded protein stability index.
reported.property: protein stability index

mutant=L13H reported_value=4.82
mutant=R10E reported_value=5.4
mutant=P16S reported_value=5.43
mutant=T8G reported_value=2.93
mutant=E6T reported_value=2.08
mutant=D7Q reported_value=2.39
mutant=T8A reported_value=2.41
mutant=R11S reported_value=4.4
mutant=G19L reported_value=1.72
mutant=E17C reported_value=3.65
mutant=R12A reported_value=2.65
mutant=P16D reported_value=5.74
mutant=G5V reported_value=2.55
mutant=L14G reported_value=5.21
mutant=R12K reported_value=3.55
mutant=Q23I reported_value=1.73
mutant=R10D reported_value=5.38
mutant=A1V reported_value=3.31
mutant=A15R reported_value=5.03
